METHOD_DESCRIPTION: in vivo
REPORTED_CONDITIONS: cynomolgus monkey, iv, 1 mg/kg
QUANTITY_KIND: AUC(0-t) at 24 h (ng·h/mL)
Answer in ng·h/mL, number only, no unit symbol.

Requested field: AUC(0-t) at 24 h. Item: "O=C(O[C@@H]1O[C@H](C(=O)O)[C@@H](O)[C@H](O)[C@H]1O)c1c[nH]c2cc(Cl)c(-c3ccc(C4(O)CCC4)cc3)cc12"
1750

----------
METHOD_DESCRIPTION: Half life of the compound in deuteriated phosphate buffer at pH 7.4 at 37 degC measured every 25 mins for 21 hrs by 1H NMR analysis
Format: physicochemical
QUANTITY_KIND: half-life

Fill blank: measured half-life of the compound "O=C(O[C@@H]1O[C@H](C(=O)O)[C@@H](O)[C@H](O)[C@H]1O)c1c[nH]c2cc(F)c(-c3ccc([C@@H]4CCCCO4)cc3)c(F)c12" is ____.
> 21 h

Given the compound "COc1nc(N(C)C)ccc1-c1cc2c(C(=O)O[C@@H]3O[C@H](C(=O)O)[C@@H](O)[C@H](O)[C@H]3O)c[nH]c2cc1Cl" , what is its reported half-life?
> 21 h

What measured half-life goes with "O=C(O[C@@H]1O[C@H](C(=O)O)[C@@H](O)[C@H](O)[C@H]1O)c1c[nH]c2cc(Cl)c(-c3ccc(C4(O)CCC4)cc3)cc12" ?
> 21 h

----------
METHOD_DESCRIPTION: in vitro
REPORTED_CONDITIONS: human, plasma
Description: Protein binding in human plasma assessed as unbound fraction
QUANTITY_KIND: fraction unbound
Give the value as a plain number.

Any idea what its fraction unbound is? The compound is "O=C(O[C@@H]1O[C@H](C(=O)O)[C@@H](O)[C@H](O)[C@H]1O)c1c[nH]c2cc(Cl)c(-c3ccc(C4(O)CCC4)cc3)cc12"
0.019

----------
ASSAYED_SYSTEM: AMPK alpha2/beta2/gamma3 (Homo sapiens, UniProt O43741+P54646+Q9UGI9)
Sequence (P54646 whole entry): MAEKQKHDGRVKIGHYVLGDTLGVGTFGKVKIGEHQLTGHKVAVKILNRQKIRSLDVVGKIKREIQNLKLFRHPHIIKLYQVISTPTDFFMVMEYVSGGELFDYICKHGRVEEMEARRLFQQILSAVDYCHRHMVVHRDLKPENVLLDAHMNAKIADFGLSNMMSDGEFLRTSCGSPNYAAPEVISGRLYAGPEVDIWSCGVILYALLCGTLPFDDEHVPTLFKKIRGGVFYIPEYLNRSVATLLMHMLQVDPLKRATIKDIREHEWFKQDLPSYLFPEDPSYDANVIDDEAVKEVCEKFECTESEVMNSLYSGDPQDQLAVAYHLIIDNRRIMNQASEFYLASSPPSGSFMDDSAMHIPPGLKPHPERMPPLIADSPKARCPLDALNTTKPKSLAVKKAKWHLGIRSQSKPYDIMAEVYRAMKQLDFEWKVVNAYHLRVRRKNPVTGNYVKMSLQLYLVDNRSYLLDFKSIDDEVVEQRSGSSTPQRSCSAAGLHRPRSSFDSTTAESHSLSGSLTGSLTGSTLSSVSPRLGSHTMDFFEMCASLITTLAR
Sequence (O43741 whole entry): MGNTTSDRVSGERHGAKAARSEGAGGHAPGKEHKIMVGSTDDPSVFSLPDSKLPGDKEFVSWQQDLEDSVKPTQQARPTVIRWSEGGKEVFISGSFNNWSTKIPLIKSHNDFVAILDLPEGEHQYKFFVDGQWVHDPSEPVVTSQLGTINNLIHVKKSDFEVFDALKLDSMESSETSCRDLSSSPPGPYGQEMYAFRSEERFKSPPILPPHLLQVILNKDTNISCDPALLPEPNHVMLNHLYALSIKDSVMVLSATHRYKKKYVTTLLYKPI
Sequence (Q9UGI9 whole entry): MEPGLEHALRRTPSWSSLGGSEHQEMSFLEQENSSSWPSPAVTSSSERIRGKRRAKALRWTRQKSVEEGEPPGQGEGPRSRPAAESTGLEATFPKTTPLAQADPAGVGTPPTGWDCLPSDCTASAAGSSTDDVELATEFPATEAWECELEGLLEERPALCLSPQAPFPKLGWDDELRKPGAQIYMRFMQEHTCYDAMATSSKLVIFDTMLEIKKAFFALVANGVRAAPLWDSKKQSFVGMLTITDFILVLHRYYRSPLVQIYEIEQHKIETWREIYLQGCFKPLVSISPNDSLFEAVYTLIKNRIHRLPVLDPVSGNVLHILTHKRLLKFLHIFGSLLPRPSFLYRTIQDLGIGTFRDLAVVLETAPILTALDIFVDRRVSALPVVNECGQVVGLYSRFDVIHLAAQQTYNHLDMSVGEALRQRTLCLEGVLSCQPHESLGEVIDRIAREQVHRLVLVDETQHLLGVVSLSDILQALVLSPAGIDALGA
METHOD_DESCRIPTION: biochemical
Description: Activation of full-length recombinant N-terminal His-tagged human AMPKalpha2beta2gamma3 expressed in Escherichia coli BL21 cells using Cy-5 SAMS peptide as substrate preincubated for 60 mins followed by substrate addition and measured after 60 mins in presence of PP2a by TR-FRET assay
pEC50: −log10 of the molar value.
QUANTITY_KIND: pEC50

What does the data say about its pEC50? Entry: "O=C(O[C@@H]1O[C@H](C(=O)O)[C@@H](O)[C@H](O)[C@H]1O)c1c[nH]c2cc(F)c(-c3ccc([C@@H]4CCCCO4)cc3)c(F)c12"
< 4.40

----------
METHOD_DESCRIPTION: Intrinsic clearance in monkey hepatocytes assessed per million cells
Format: ADME, cell-based, Macaca mulatta, Hepatocyte
REPORTED_CONDITIONS: rhesus monkey, read-out: CLH
QUANTITY_KIND: hepatocyte CLint

Value lookup for hepatocyte CLint; key = "O=C(O[C@@H]1O[C@H](C(=O)O)[C@@H](O)[C@H](O)[C@H]1O)c1c[nH]c2cc(Cl)c(-c3ccc(C4(O)CCC4)cc3)cc12"
< 6 µL/min/1e6 cells

----------
What logD at 1 h was measured for each of the following?
METHOD_DESCRIPTION: physchem
REPORTED_CONDITIONS: in vivo, pH 7.4
Keep it simple and answer with nothing but the number.

Please look up its logD at 1 h: "COc1nc(N(C)C)ccc1-c1cc2c(C(=O)O[C@@H]3O[C@H](C(=O)O)[C@@H](O)[C@H](O)[C@H]3O)c[nH]c2cc1Cl"
-0.05

Would you mind telling me what logD at 1 h value was observed for "O=C(O[C@@H]1O[C@H](C(=O)O)[C@@H](O)[C@H](O)[C@H]1O)c1c[nH]c2cc(F)c(-c3ccc([C@@H]4CCCCO4)cc3)c(F)c12" ?
0.08

Quick one: logD at 1 h for "O=C(O)c1c[nH]c2cc(F)c(-c3ccc([C@@H]4CCCCO4)cc3)c(F)c12" ?
1.8

What does the record list as logD at 1 h for "O=C(O[C@@H]1O[C@H](C(=O)O)[C@@H](O)[C@H](O)[C@H]1O)c1c[nH]c2cc(Cl)c(-c3ccc(C4(O)CCC4)cc3)cc12" ?
-0.14

Would you mind telling me what logD at 1 h value was observed for "COc1nc(N(C)C)ccc1-c1cc2c(C(=O)O)c[nH]c2cc1Cl" ?
2.3

----------
METHOD_DESCRIPTION: Intrinsic clearance in rat hepatocytes assessed per million cells
Assay type: ADME, cell-based, Hepatocyte
REPORTED_CONDITIONS: read-out: CLH
QUANTITY_KIND: hepatocyte CLint

Field request: hepatocyte CLint | item: "O=C(O[C@@H]1O[C@H](C(=O)O)[C@@H](O)[C@H](O)[C@H]1O)c1c[nH]c2cc(Cl)c(-c3ccc(C4(O)CCC4)cc3)cc12"
< 6 µL/min/1e6 cells

----------
METHOD_DESCRIPTION: in vivo
REPORTED_CONDITIONS: cynomolgus monkey, plasma, iv, 1 mg/kg
QUANTITY_KIND: clearance (mL/min/kg)
Enter your answer as a number in mL/min/kg; do not include the unit.

# get_value(readout='clearance', item= "O=C(O[C@@H]1O[C@H](C(=O)O)[C@@H](O)[C@H](O)[C@H]1O)c1c[nH]c2cc(Cl)c(-c3ccc(C4(O)CCC4)cc3)cc12" )
9.85

----------
METHOD_DESCRIPTION: Half life in human hepatocytes
Type: ADME, cell-based, Hepatocyte
QUANTITY_KIND: half-life

Need half-life, item "O=C(O[C@@H]1O[C@H](C(=O)O)[C@@H](O)[C@H](O)[C@H]1O)c1c[nH]c2cc(Cl)c(-c3ccc(C4(O)CCC4)cc3)cc12"
> 4 h

----------
ASSAYED_SYSTEM: AMPK alpha2/beta1/gamma1 (Homo sapiens, UniProt P54619+P54646+Q9Y478)
Sequence (Q9Y478 whole entry, one chain of several): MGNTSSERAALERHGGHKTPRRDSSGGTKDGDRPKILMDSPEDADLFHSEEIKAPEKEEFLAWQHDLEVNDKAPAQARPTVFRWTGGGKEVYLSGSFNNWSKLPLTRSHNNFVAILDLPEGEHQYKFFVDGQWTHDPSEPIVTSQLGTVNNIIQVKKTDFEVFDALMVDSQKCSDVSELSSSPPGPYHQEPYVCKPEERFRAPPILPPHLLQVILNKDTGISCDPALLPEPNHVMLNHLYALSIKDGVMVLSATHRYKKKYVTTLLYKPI
METHOD_DESCRIPTION: biochemical
Description: Activation of full-length recombinant N-terminal His-tagged human AMPKalpha2beta1gamma1 expressed in Escherichia coli BL21 cells using Cy-5 SAMS peptide as substrate preincubated for 60 mins followed by substrate addition and measured after 60 mins in presence of PP2a by TR-FRET assay
QUANTITY_KIND: EC50 (nM)
The reply should be a number in nM, with the unit left off.

What EC50 appears in the records for this compound with AMPK alpha2/beta1/gamma1 (Homo sapiens, UniProt P54619+P54646+Q9Y478)? "O=C(O[C@@H]1O[C@H](C(=O)O)[C@@H](O)[C@H](O)[C@H]1O)c1c[nH]c2cc(F)c(-c3ccc([C@@H]4CCCCO4)cc3)c(F)c12"
332

----------
METHOD_DESCRIPTION: Drug recovery in Wistar Han rat urine assessed as unchanged parent compound level at 0.5 mg/kg, iv by LC-MS/MS analysis
Format: ADME, organism-based
REPORTED_CONDITIONS: read-out: Drug recovery
QUANTITY_KIND: dose excreted
Just the number plus its unit, please.

Entry under review: "O=C(O[C@@H]1O[C@H](C(=O)O)[C@@H](O)[C@H](O)[C@H]1O)c1c[nH]c2cc(Cl)c(-c3ccc(C4(O)CCC4)cc3)cc12" . Reported dose excreted?
1%

----------
METHOD_DESCRIPTION: in vivo
REPORTED_CONDITIONS: cynomolgus monkey, urine, iv, 1 mg/kg
Description: Drug recovery in cynomolgus monkey urine assessed as unchanged parent compound level at 1 mg/kg, iv by LC-MS/MS analysis
QUANTITY_KIND: dose excreted

For "O=C(O[C@@H]1O[C@H](C(=O)O)[C@@H](O)[C@H](O)[C@H]1O)c1c[nH]c2cc(Cl)c(-c3ccc(C4(O)CCC4)cc3)cc12" , what is its reported dose excreted?
9.8%

----------
METHOD_DESCRIPTION: Half life in Wistar Han rat at 0.5 mg/kg, iv by LC-MS/MS analysis
Format: ADME, organism-based
REPORTED_CONDITIONS: in vivo
QUANTITY_KIND: half-life (h)
// units = h; emit number, no label

Sample "O=C(O[C@@H]1O[C@H](C(=O)O)[C@@H](O)[C@H](O)[C@H]1O)c1c[nH]c2cc(Cl)c(-c3ccc(C4(O)CCC4)cc3)cc12" — what was its half-life?
6.96

----------
ASSAYED_SYSTEM: AMPK alpha1/beta2/gamma1 (Homo sapiens, UniProt O43741+P54619+Q13131)
Sequence (O43741 whole entry): as the sequence (O43741 whole entry) above
Sequence (P54619 whole entry): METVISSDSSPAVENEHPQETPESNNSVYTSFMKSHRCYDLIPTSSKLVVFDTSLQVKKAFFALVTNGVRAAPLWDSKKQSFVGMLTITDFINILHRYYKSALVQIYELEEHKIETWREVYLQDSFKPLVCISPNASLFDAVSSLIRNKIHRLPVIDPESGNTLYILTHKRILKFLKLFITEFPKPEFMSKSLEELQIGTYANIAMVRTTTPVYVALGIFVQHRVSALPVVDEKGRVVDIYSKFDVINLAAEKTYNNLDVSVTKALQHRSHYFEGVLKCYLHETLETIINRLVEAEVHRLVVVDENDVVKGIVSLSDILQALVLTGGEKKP
Sequence (Q13131 whole entry): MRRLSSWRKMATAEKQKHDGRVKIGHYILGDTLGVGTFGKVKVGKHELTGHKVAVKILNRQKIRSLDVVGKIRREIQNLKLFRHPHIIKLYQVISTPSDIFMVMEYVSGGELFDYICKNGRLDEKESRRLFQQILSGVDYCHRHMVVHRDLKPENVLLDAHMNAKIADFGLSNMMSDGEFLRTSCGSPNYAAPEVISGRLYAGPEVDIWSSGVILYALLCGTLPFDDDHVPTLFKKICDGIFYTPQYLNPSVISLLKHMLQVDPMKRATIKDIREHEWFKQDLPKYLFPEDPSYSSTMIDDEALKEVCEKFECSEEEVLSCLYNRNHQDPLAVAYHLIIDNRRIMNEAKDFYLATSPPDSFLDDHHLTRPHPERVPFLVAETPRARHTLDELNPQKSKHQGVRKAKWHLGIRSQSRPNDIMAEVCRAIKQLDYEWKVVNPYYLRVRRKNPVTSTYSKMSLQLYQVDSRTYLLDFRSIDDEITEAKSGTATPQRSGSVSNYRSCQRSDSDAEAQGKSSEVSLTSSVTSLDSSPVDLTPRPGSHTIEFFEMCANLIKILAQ
METHOD_DESCRIPTION: biochemical
Description: Activation of full-length recombinant N-terminal His-tagged human AMPKalpha1beta2gamma1 expressed in Escherichia coli BL21 cells using Cy-5 SAMS peptide as substrate preincubated for 60 mins followed by substrate addition and measured after 60 mins in presence of PP2a by TR-FRET assay
pEC50: −log10 of the molar value.
QUANTITY_KIND: pEC50

For the record "O=C(O[C@@H]1O[C@H](C(=O)O)[C@@H](O)[C@H](O)[C@H]1O)c1c[nH]c2cc(F)c(-c3ccc([C@@H]4CCCCO4)cc3)c(F)c12" , what value of pEC50 is listed for AMPK alpha1/beta2/gamma1 (Homo sapiens, UniProt O43741+P54619+Q13131)?
< 4.40

----------
METHOD_DESCRIPTION: Plasma clearance in Wistar Han rat at 0.5 mg/kg, iv by LC-MS/MS analysis
Format: ADME, organism-based
QUANTITY_KIND: clearance
Don't forget the unit after the value.

Can you share its clearance? I mean this compound: "O=C(O[C@@H]1O[C@H](C(=O)O)[C@@H](O)[C@H](O)[C@H]1O)c1c[nH]c2cc(Cl)c(-c3ccc(C4(O)CCC4)cc3)cc12"
0.99 mL/min/kg

----------
ASSAYED_SYSTEM: AMPK alpha2/beta2/gamma1 (Homo sapiens, UniProt O43741+P54619+P54646)
METHOD_DESCRIPTION: biochemical
Description: Activation of full-length recombinant N-terminal His-tagged human AMPKalpha2beta2gamma1 expressed in Escherichia coli BL21 cells using Cy-5 SAMS peptide as substrate preincubated for 60 mins followed by substrate addition and measured after 60 mins in presence of PP2a by TR-FRET assay
QUANTITY_KIND: EC50

Find the recorded EC50 belonging to "O=C(O[C@@H]1O[C@H](C(=O)O)[C@@H](O)[C@H](O)[C@H]1O)c1c[nH]c2cc(F)c(-c3ccc([C@@H]4CCCCO4)cc3)c(F)c12" and report it.
> 40 µM

Where these numbers come from: ChEMBL document CHEMBL4229467
